Tested on: U2OS
Test: Incucyte cell viability with U2OS; further: unitless GR value; below 1 slowed growth and below 0 cell loss
Type: toxicity, cell-based
Conditions: human, 18 h, 10 µM, compound concentration 10 uM, replicate number 2, timepoint 18 hours
Parameter: Growth Rate. Scope: all listed entries.
Keep it simple and answer with nothing but the number.

Example compounds with recorded Growth Rate:
Value lookup for Growth Rate; key = `CC(=O)Nc1cccc2c1c(Sc1ccc(Cl)cc1)c(C)n2CC(=O)O`
0.89

Value lookup for Growth Rate; key = `CCCCC(=O)N(Cc1ccc(-c2ccccc2-c2nnn[nH]2)cc1)[C@H](C(=O)O)C(C)C`
0.92

Value lookup for Growth Rate; key = `N=C(N)NCCC[C@H](NC(=O)COCC(c1ccccc1)c1ccccc1)C(=O)O.O=C(O)C(F)(F)F`
0.91

Value lookup for Growth Rate; key = `CN(C)C(=O)Cn1cc(-c2ccc(-c3nnc4ccccn34)cc2)cn1`
0.91

***
Value lookup for Growth Rate; key = `CSCC[C@H](NC=O)C(=O)N[C@@H](CC(C)C)C(=O)N[C@@H](Cc1ccccc1)C(=O)O`
0.92

---

Parameter: Growth Rate. Scope: all listed entries.
System: U2OS
Test: Incucyte cell viability with U2OS; further: unitless GR value; below 1 slowed growth and below 0 cell loss
Format: toxicity, cell-based
Settings: human, 18 h, 10 µM, compound concentration 10 uM, replicate number 1, timepoint 18 hours
Keep it simple and answer with nothing but the number.

Example molecules with recorded Growth Rate:
Value lookup for Growth Rate; key = `CN[C@@H](C)C(=O)N[C@H]1CCCC[C@H]2CC[C@@H](C(=O)N[C@@H](c3ccccc3)c3cn(CCCCc4ccc(CCCCn5cc([C@@H](NC(=O)[C@@H]6CC[C@@H]7CCCC[C@H](NC(=O)[C@H](C)NC)C(=O)N76)c6ccccc6)nn5)cc4)nn3)N2C1=O`
0.97

Value lookup for Growth Rate; key = C[S+](C)[O-] [DIMETHYL SULFOXIDE]
0.94

***
Value lookup for Growth Rate; key = C[C@H]1CN(C[C@H](Cc2ccccc2)C(=O)NCC(=O)O)CC[C@@]1(C)c1cccc(O)c1 [ALVIMOPAN]
0.91

Value lookup for Growth Rate; key = CC[S+]([O-])c1nc(-c2cccc(OCc3ccccc3)c2)cc(C(F)(F)F)n1 (stereo not drawn)
-0.19

---

Test system: Fibroblast
Assay: Incucyte cell viability with human fibroblast; further: unitless GR value; below 1 slowed growth and below 0 cell loss
Format: toxicity, cell-based
Conditions: 18 h, 10 µM, compound concentration 10 uM, replicate number 1, timepoint 18 hours
Parameter: Growth Rate. Scope: all listed entries.
Keep it simple and answer with nothing but the number.

Value lookup for Growth Rate; key = `COc1ccccc1N1CCN(C[C@@H](C(=O)NC(C)(C)C)c2ccccc2)CC1.Cl.Cl`
1

Value lookup for Growth Rate; key = `Cc1sc2c(c1C)C(c1ccc(Cl)cc1)=N[C@H](CC(=O)OC(C)(C)C)c1nnc(C)n1-2`
0.98

Value lookup for Growth Rate; key = `C[C@]12N[C@H](Cc3ccccc31)c1ccccc12`
0.43

Value lookup for Growth Rate; key = `O=C([O-])[C@H]1O[C@H](OP(=O)([O-])OP(=O)([O-])OC[C@H]2O[C@@H](n3ccc(=O)[nH]c3=O)[C@H](O)[C@@H]2O)[C@H](O)[C@@H](O)[C@@H]1O.[Na+].[Na+].[Na+]`
0.88

Value lookup for Growth Rate; key = Cc1sc2c(c1C)C(c1ccc(Cl)cc1)=N[C@@H](CC(=O)NCCCCCCCCNC(=O)COc1cccc3c1C(=O)N(C1CCC(=O)NC1=O)C3=O)c1nnc(C)n1-2 (some centres not stated)
-0.47

***
Value lookup for Growth Rate; key = CN(C)[C@H]1CN(C2CCc3cccc(F)c32)C[C@@H]1c1ccc(N2CCN(S(C)(=O)=O)CC2)cc1 (some centres not stated)
0.68

Value lookup for Growth Rate; key = `COC1(C[S@@+]([O-])c2ccccc2)CCN(CCc2c[nH]c3ccc(F)cc23)CC1`
0.49

Value lookup for Growth Rate; key = `O=C(NC[C@@H]1[C@H]2CN(C(=O)OCc3cc(C(F)(F)F)cc(C(F)(F)F)c3)C[C@@H]12)c1ccc2[nH]nnc2c1`
-0.55

Value lookup for Growth Rate; key = `CN1CCN(c2nc3cc(C(F)(F)F)ccc3n3cccc23)CC1.O=C(O)/C=C\C(=O)O.O=C(O)/C=C\C(=O)O`
0.98

Value lookup for Growth Rate; key = `O=C(O)c1cc2ccccc2c(Cc2c(O)c(C(=O)O)cc3ccccc23)c1O`
0.93

Value lookup for Growth Rate; key = `COc1c(Nc2ccc(S(C)(=O)=O)nc2C)ncnc1OC1CCN(C(=O)OC(C)C)CC1`
0.34

Value lookup for Growth Rate; key = `O=S(=O)(c1ccccc1)N(CC(F)(F)F)c1ccc(C(O)(C(F)(F)F)C(F)(F)F)cc1`
-0.3

Value lookup for Growth Rate; key = `CO[C@H]1CNC[C@@H](OCC2CCC(F)(F)CC2)[C@@H]1Nc1ncc(-c2cncc(C)c2)c2cc(C)c(=O)[nH]c12`
0.28

Value lookup for Growth Rate; key = `N=C(N)NCCC[C@H](NC(=O)COCC(c1ccccc1)c1ccccc1)C(=O)O.O=C(O)C(F)(F)F`
0.46

Value lookup for Growth Rate; key = `CC[C@H]1CN2CCc3cc(OC)c(OC)cc3[C@@H]2C[C@@H]1C[C@H]1NCCc2cc(OC)c(OC)cc21`
-0.63

Value lookup for Growth Rate; key = `Cc1nn(C)c(C)c1-c1cccc2c1CC[C@H](N(C)C)C2`
0.49

Value lookup for Growth Rate; key = `COc1cccc2c1c(NS(=O)(=O)c1ccc(Cl)s1)nn2Cc1cccc(CNC(=O)C(C)(C)O)c1`
0.35

Value lookup for Growth Rate; key = `CC(C)(C)c1ccc(CSc2cnn(C(C)(C)C)c(=O)c2Cl)cc1`
-0.13
